# testedSystem: human V1a receptor (Homo sapiens)
# Sequence (P37288 whole entry): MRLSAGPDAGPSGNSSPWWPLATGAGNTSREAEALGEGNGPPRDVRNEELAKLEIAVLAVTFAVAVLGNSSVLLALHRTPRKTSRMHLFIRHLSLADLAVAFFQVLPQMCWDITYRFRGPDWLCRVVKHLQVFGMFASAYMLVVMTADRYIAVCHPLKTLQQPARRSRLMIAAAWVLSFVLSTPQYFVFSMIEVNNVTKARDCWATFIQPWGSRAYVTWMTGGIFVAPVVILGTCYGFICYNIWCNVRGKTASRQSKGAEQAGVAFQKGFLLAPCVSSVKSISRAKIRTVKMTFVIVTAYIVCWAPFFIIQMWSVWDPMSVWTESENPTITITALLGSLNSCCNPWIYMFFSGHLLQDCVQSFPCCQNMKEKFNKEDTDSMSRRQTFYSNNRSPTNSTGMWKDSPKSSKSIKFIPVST
# measurementDescription: Cellular in vitro assay for determining vasopressin receptor activity, V1a receptor cell line (CHO, aequorin luminescence)
# runConditions: CHO cell line transfected with human V1a receptor; [Arg]-vasopressin at EC50 concentration; read-out: IC50 hV1a
# Experimental: B-1. Cellular In Vitro Assay for Determining Vasopressin Receptor Activity The identification of agonists and antagonists of the V1a and V2 vasopressin receptors from humans, rats and dogs as well as the quantification of the activity of the compounds of the invention is carried out using recombinant cell lines. […] The bioluminescence of the cell lines is detected using a suitable luminometer [Milligan G, Marshall F, Rees S, Trends in Pharmacological Sciences 17, 235-237 (1996)]. […]
parameter: IC50 (nM)
Note: unit nM is implicit; provide only the numeric part.

O=C1CC[C@H](CNC(=O)c2ccccc2-n2cnc(Cn3nc(-c4ccc(Cl)cc4)n(C[C@H](O)C(F)(F)F)c3=O)n2)N1 ... 6.1
O=C(CF)Nc1cccnc1-n1cnc(Cn2nc(-c3ccc(Cl)cc3)n(C[C@H](O)C(F)(F)F)c2=O)n1 ... 23

Switching to the query record.
What value of measured IC50 is listed for O=C(c1ccccc1-n1cnc(Cn2nc(-c3ccc(Cl)cc3)n(C[C@H](O)C(F)(F)F)c2=O)n1)N1CCCC1 ?
3.85
